Test system: gram negative bacteria
Assay Explanation: In vitro anti-bacterial activity assay (broth dilution MIC), gram negative bacteria
Assay type: cell-based, E. coli
Test Context: Escherichia coli, ATCC25922, 18 h, E. coli ATCC 25922; read-out: Median MIC's G− E. coli ATCC 25922
MIC: recorded values
Report as: number unit

- Compound: "COCCCOCCN(C)Cc1cccc(-c2ccc(O)c3c2C[C@H]2C[C@H]4[C@H](N(C)C)C(O)=C(C(N)=O)C(=O)[C@@]4(O)C(O)=C2C3=O)c1 [DE]"
  MIC: "2 µg/mL"
- Compound: "CN(C)CCNCc1ccc(-c2ccc(O)c3c2C[C@H]2C[C@H]4[C@H](N(C)C)C(O)=C(C(N)=O)C(=O)[C@@]4(O)C(O)=C2C3=O)o1 [CY]"
  MIC: "4 µg/mL"
- Compound: "C=CCNCC(=O)c1ccc(O)c2c1C[C@H]1C[C@H]3[C@H](N(C)C)C(O)=C(C(N)=O)C(=O)[C@@]3(O)C(O)=C1C2=O [BV]"
  MIC: "32 µg/mL"
- Compound: "COCCNCc1ccoc1-c1ccc(O)c2c1C[C@H]1C[C@H]3[C@H](N(C)C)C(O)=C(C(N)=O)C(=O)[C@@]3(O)C(O)=C1C2=O [BQ]"
  MIC: "1 µg/mL"
- Compound: "CN(C)[C@@H]1C(O)=C(C(N)=O)C(=O)[C@@]2(O)C(O)=C3C(=O)c4c(O)ccc(-c5cccc(C(N)=O)c5)c4C[C@H]3C[C@@H]12 [AE]"
  MIC: "4 µg/mL"

Known value: gram negative bacteria MIC of the compound CN(C)CCNC(=O)c1cccc(-c2ccc(O)c3c2C[C@H]2C[C@H]4CC(O)=C(C(N)=O)C(=O)[C@@]4(O)C(O)=C2C3=O)c1 [Z] equals 64 µg/mL

Known value: gram negative bacteria MIC of the compound CN(C)CCCNC(=O)c1cccc(-c2ccc(O)c3c2C[C@H]2C[C@H]4[C@@H](N(C)C)C(O)=C(C(N)=O)C(=O)[C@@]4(O)C(O)=C2C3=O)c1 [P] equals 64 µg/mL

Known value: gram negative bacteria MIC of the compound CN1CCN(Cc2cccc(-c3ccc(O)c4c3C[C@H]3C[C@H]5[C@H](N(C)C)C(O)=C(C(N)=O)C(=O)[C@@]5(O)C(O)=C3C4=O)c2)CC1 [DK] equals 1 µg/mL

Known value: gram negative bacteria MIC of the compound CN(C)[C@@H]1C(O)=C(C(N)=O)C(=O)[C@@]2(O)C(O)=C3C(=O)c4c(O)ccc(C(=O)CNCC(C)(C)C)c4C[C@H]3C[C@@H]12 [BP] equals 32 µg/mL

Known value: gram negative bacteria MIC of the compound CC(=O)NCCC(=O)c1ccc(O)c2c1C[C@H]1C[C@H]3[C@H](N(C)C)C(O)=C(C(N)=O)C(=O)[C@@]3(O)C(O)=C1C2=O [CI] equals 64 µg/mL

Known value: gram negative bacteria MIC of the compound CN(C)[C@@H]1C(O)=C(C(N)=O)C(=O)[C@@]2(O)C(O)=C3C(=O)c4c(O)ccc(-c5cccc(C(=O)NCC[N+](C)(C)C)c5)c4C[C@H]3C[C@@H]12 [DA] equals 64 µg/mL
